Assay: Test on the solubility in a simulated body fluid
Format: physicochemical
Conditions: 0.01 M PBS pH 7.4, 37° C., 1 h
Protocol: Test on the Solubility in a Simulated Body Fluid The concentration of the drug dissolved in the PBS buffered solution was determined with an HPLC-a method.
Catalogue of Compound concentration: Bupivacaine values
PROPERTY_LABEL: Compound concentration: Bupivacaine (mM)

MOLECULE: CCCCN1CCCCC1C(=O)Nc1c(C)cccc1C.CCCCN1CCCCC1C(=O)Nc1c(C)cccc1C.O=C(O)c1cc2ccccc2c(Cc2c(O)c(C(=O)O)cc3ccccc23)c1O [Preparation Example 15, bis(bupivacaine) pamoate]
PROPERTY_LABEL: Compound concentration: Bupivacaine
OBSERVED: 0.2574
//
MOLECULE: CCCCN1CCCCC1C(=O)Nc1c(C)cccc1C.CCCCN1CCCCC1C(=O)Nc1c(C)cccc1C.Cc1ccc(C(=O)OC(C(=O)O)C(OC(=O)c2ccc(C)cc2)C(=O)O)cc1 (stereo not shown) [Preparation Example 4, bis(bupivacaine) di-p-toluoyl tartarate]
PROPERTY_LABEL: Compound concentration: Bupivacaine
OBSERVED: 11.2567
//
MOLECULE: CCCCN1CCCCC1C(=O)Nc1c(C)cccc1C.CCCCN1CCCCC1C(=O)Nc1c(C)cccc1C.O=C(O)c1cc2ccccc2c(Cc2c(O)c(C(=O)O)cc3ccccc23)c1O [Preparation Example 30, bis(bupivacaine) pamoate]
PROPERTY_LABEL: Compound concentration: Bupivacaine
OBSERVED: 0.2805
//
MOLECULE: CC1(C)C2CCC1(CS(=O)(=O)O)C(=O)C2.CCCCN1CCCCC1C(=O)Nc1c(C)cccc1C (stereo not shown) [Preparation Example 8, bupivacaine camphorsulfonate]
PROPERTY_LABEL: Compound concentration: Bupivacaine
OBSERVED: 68.1958
//
MOLECULE: CCCCN1CCCCC1C(=O)Nc1c(C)cccc1C.CCCCN1CCCCC1C(=O)Nc1c(C)cccc1C.O=C(O)c1cc2ccccc2c(Cc2c(O)c(C(=O)O)cc3ccccc23)c1O [Preparation Example 12, bis(bupivacaine) pamoate]
PROPERTY_LABEL: Compound concentration: Bupivacaine
OBSERVED: 0.2672
//
MOLECULE: CCCCN1CCCCC1C(=O)Nc1c(C)cccc1C.O=C(O)c1cc2ccccc2c(Cc2c(O)c(C(=O)O)cc3ccccc23)c1O [Preparation Example 10, mono(bupivacaine) pamoate]
PROPERTY_LABEL: Compound concentration: Bupivacaine
OBSERVED: 0.9387
//
MOLECULE: CCCCN1CCCCC1C(=O)Nc1c(C)cccc1C.Cc1ccc(C(=O)OC(C(=O)O)C(OC(=O)c2ccc(C)cc2)C(=O)O)cc1 (stereo not shown) [Preparation Example 3, mono(bupivacaine) di-p-toluoyl tartarate]
PROPERTY_LABEL: Compound concentration: Bupivacaine
OBSERVED: 7.5190

----------
Catalogue of Compound concentration: Bupivacaine values
Experiment: Test on the solubility in a simulated body fluid
Assay type: physicochemical
Settings: 0.01 M PBS pH 7.4, 37° C., 30 min
Experimental: Test on the Solubility in a Simulated Body Fluid The concentration of the drug dissolved in the PBS buffered solution was determined with an HPLC-a method.
PROPERTY_LABEL: Compound concentration: Bupivacaine

COMPOUND: CCCCN1CCCCC1C(=O)Nc1c(C)cccc1C.CCCCN1CCCCC1C(=O)Nc1c(C)cccc1C.O=C(O)c1cc2ccccc2c(Cc2c(O)c(C(=O)O)cc3ccccc23)c1O [Preparation Example 29, bis(bupivacaine) pamoate]
OBSERVED: 241.5 µM
--
COMPOUND: CCCCN1CCCCC1C(=O)Nc1c(C)cccc1C.Cc1ccc(C(=O)OC(C(=O)O)C(OC(=O)c2ccc(C)cc2)C(=O)O)cc1 (stereo not shown) [Preparation Example 3, mono(bupivacaine) di-p-toluoyl tartarate]
OBSERVED: 7662.2 µM
--
COMPOUND: CCCCN1CCCCC1C(=O)Nc1c(C)cccc1C.CCCCN1CCCCC1C(=O)Nc1c(C)cccc1C.O=C(OC(C(=O)O)C(OC(=O)c1ccccc1)C(=O)O)c1ccccc1 (stereo not shown) [Preparation Example 2, bis(bupivacaine) dibenzoyl tartarate]
OBSERVED: 2133.2 µM
--
COMPOUND: CCCCN1CCCCC1C(=O)Nc1c(C)cccc1C.CCCCN1CCCCC1C(=O)Nc1c(C)cccc1C.O=C(O)c1cc2ccccc2c(Cc2c(O)c(C(=O)O)cc3ccccc23)c1O [Preparation Example 15, bis(bupivacaine) pamoate]
OBSERVED: 239.4 µM
